Reference for the values: PubChem BioAssay

assay_text: inhibitors of the yeast RAM network, pilot screen, dse1pr::URA3 reporter, 5-FOA selection (AID 869);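 further: 0% = DMSO wells with no growth and 100% = 10 µM 1-NA-PP1 with full growth; RAM network block rescues cells from 5-FOA so hits raise OD615 growth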
protocol_conditions: S. cerevisiae dse1pr::URA3 5-FOA growth, OD615, 2 d; at 10 µM; stronger effect = higher value; strain carries analog-sensitive mutant Cbk1 kinase
Active and inactive are the calls of the source.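 How the source made its calls: active means inhibition over a set limit, the all-compound mean plus 3 SD, in both replicate runs; inconclusive means over that limit in just one replicate run; inactive means at or under that limit in both runs.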
measure_name: inhibition

INSERT INTO measurements (compound, result) VALUES
  ('COc1ccc(Br)cc1/C=N/n1c(C)nnc1C', '1.7% (inactive)'),
  ('COc1c(C)cc(Br)cc1C(=O)Nc1cccc(-c2nc3ncccc3o2)c1', '2.24% (inactive)'),
  ('O=C1c2cccnc2C(=O)N1Cc1ccccc1', '0.015% (inactive)'),
  ('Cc1ccc(N2CCN(S(=O)(=O)c3ccc(F)cc3)CC2)c(C)c1', '-0.44% (inactive)'),
  ('Cc1ccc(CCNC(=O)CS(=O)Cc2nc(-c3cccc(C)c3)oc2C)cc1 (stereo not drawn)', '2.59% (inactive)'),
  ('CC1CCCN(c2nc3c(c(=O)[nH]c(=O)n3C)n2CCSc2ncccn2)C1 (stereo not drawn)', '1.14% (inactive)'),
  ('O=C(c1cnccn1)N(c1ccccc1)C1(C(=O)NC2CCCCC2)CCCCC1', '1.06% (inactive)'),
  ('Cc1ccc(-c2nnc(SCC(=O)Nc3ccccc3F)o2)cc1', '4.38% (inactive)'),
  ('CCC1Oc2ccc(C)cc2N(CC(=O)N2CCN(c3ccc(F)cc3)CC2)C1=O (stereo not drawn)', '-0.495% (inactive)'),
  ('Cc1ccc2cc(CCNC(=O)C3CCCC3)c(=O)[nH]c2c1', '3.17% (inactive)'),
  ('CC(C)(Oc1ccc(Cl)cc1)C(=O)N1CCN(c2ccccn2)CC1', '0.32% (inactive)'),
  ('COc1ccccc1N1CCN(C(=O)c2cc3c(=O)n(C)c4ccccc4c3n2C)CC1', '0.125% (inactive)'),
  ('O=C1Nc2ccccc2C(O)(C(=O)NCc2ccco2)N1c1ccc(Cl)cc1 (stereo not drawn)', '1.98% (inactive)'),
  ('O=C(CCN1CCN(c2ccccc2)CC1)Nc1ccc2c(c1)OCO2', '2.58% (inactive)'),
  ('O=S(=O)(Cc1ccccc1)N1CCn2c(nc3ccccc32)C1', '1.5% (inactive)'),
  ('CN(C)S(=O)(=O)c1ccc(C(=O)Nc2ccc(OCC(=O)N3CCOCC3)cc2)cc1', '2.33% (inactive)'),
  ('CC(c1ccccc1)N1CNc2c(c(=O)n(C)c(=O)n2C)C1 (stereo not drawn)', '0.02% (inactive)'),
  ('Cc1ccccc1NCN1C(=O)C2C3C=CC(C3)C2C1=O (stereo not drawn)', '3.66% (inactive)'),
  ('O=C(C1CCCCN1S(=O)(=O)c1ccc(F)cc1)N1CCN(c2ccccc2F)CC1 (stereo not drawn)', '-0.01% (inactive)'),
  ('CC(C)C(=O)N=c1sc2cc(F)cc(F)c2n1C', '0.01% (inactive)'),
  ('CC1Cc2ccccc2N1C1=NS(=O)(=O)c2ccccc21 (stereo not drawn)', '2.68% (inactive)'),
  ('CCCNC(=O)C(Cc1ccccc1)NS(=O)(=O)c1ccc2c(c1)CCC(=O)N2 (stereo not drawn)', '0.755% (inactive)'),
  ('CCOC(=O)N1CCC(c2cc(=O)n3[nH]c(-c4ccccc4)cc3n2)CC1', '3.11% (inactive)');

====

assay_text: growth suppression of PTEN-deleted HCT116, pilot screen, cell-based, HCT116 clonal line, CellTiter-Glo (AID 824);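 further: 0% = 20 µM Hyamine control and 100% = vehicle cell control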
protocol_conditions: 60 h, at 10 µM, stronger effect = lower value
Inconclusive results are not listed.
Label TRUE when viability < 90%; otherwise FALSE.

INSERT INTO results (compound, label_class) VALUES
  ('CCOC(=O)Cn1c(CN2CCc3ccccc3C2)nc2c1c(=O)n(C)c(=O)n2C', 'TRUE'),
  ('CCOC(=O)N1CCN(CC(=O)Nc2cc3c(cc2C(C)=O)OCO3)CC1', 'FALSE'),
  ('COc1ccccc1-c1c(C)nn2c(N3CCCCCC3)cc(C)nc12', 'TRUE'),
  ('CCOc1ccccc1N1C(=O)CC(Nc2ccc(N3CCOCC3)cc2)C1=O (stereo not given)', 'FALSE'),
  ('Cc1cccc(C2N(c3ccc(F)cc3)C(=O)C3CCCN32)c1 (stereo not given)', 'FALSE'),
  ('COc1ccc(OC)c2sc(NC(=O)CCS(=O)(=O)c3ccccc3)nc12', 'TRUE');

====

A collection of molecules and their measured growth inhibition
assay_text: Restrictive medium S. cerevisiae growth inhibition, OD615, pilot screen of yeast lifespan reduction project, restrictive growth control (AID 706);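 further: modified DeaD lifespan yeast strain shifted to restrictive glucose medium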
protocol_conditions: OD615, 48 h, at 10 µM, stronger effect = higher value
measure_name: growth inhibition (%)

INSERT INTO results (molecule, result_number) VALUES
  ('COc1cccc(OC)c1C(=O)Nc1nnc(C(C)C)s1', 6.23),
  ('CCOC(=O)CSc1nnc(CSc2nc3sc4c(c3c(=O)[nH]2)CCC4)n1C', 4.33),
  ('O=C(CSc1cn(CCNC(=O)c2cccs2)c2ccccc12)NCC1CCCO1 (configuration not stated)', -23.4),
  ('CCCCNC(=O)c1ccc2nc(-c3ccco3)c(-c3ccco3)nc2c1', -6.49),
  ('Brc1ccccc1OCCCN1CCOCC1', -9.51),
  ('CCC(=O)N1CCc2cc(Br)cc(S(=O)(=O)N3CCN(C(=O)c4ccco4)CC3)c21', -21.7),
  ('COc1ccccc1N1C(=O)C2CC=CC(C)C2C1=O (configuration not stated)', 2.32),
  ('Nc1ccc(SC(F)(F)F)cc1C(=O)c1ccccc1', -13.2),
  ('Cc1[nH]c2ccccc2c1SCCN', -12.4),
  ('CC(c1ccccc1F)n1cc(C(=O)NCc2ccncc2)nn1 (configuration not stated)', -8.25),
  ('COc1ccccc1N1CCN(CCCC(=O)c2ccc(F)cc2)CC1', 1.04),
  ('CCn1c(CNC(=O)c2cccc(C)c2)nc2ccccc21', -5.74);

====

assay_text: inhibitors of the yeast RAM network, pilot screen, dse1pr::URA3 reporter, 5-FOA selection (AID 869);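 further: 0% = DMSO wells with no growth and 100% = 10 µM 1-NA-PP1 with full growth; RAM network block rescues cells from 5-FOA so hits raise OD615 growth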
protocol_conditions: S. cerevisiae dse1pr::URA3 5-FOA growth, OD615, 2 d; at 10 µM; stronger effect = higher value; strain carries analog-sensitive mutant Cbk1 kinase
# inhibition per entry
measure_name: inhibition (%)

INSERT INTO measurements (compound, measure_name, unit_of_measure, result_number) VALUES
  ('COc1cccc(N2CCN(c3ncnc4c3cnn4-c3ccc(C)cc3C)CC2)c1', 'inhibition', '%', 1.66),
  ('O=C1NCCCC1C(=O)N1CCN(C(c2ccccc2)c2ccccc2)CC1 (stereo not given)', 'inhibition', '%', 0.65),
  ('O=C(CSCCNS(=O)(=O)c1ccccc1)Nc1ccccc1', 'inhibition', '%', 1.77),
  ('CCOc1ccc(NC2CCN(C(C)=O)CC2)cc1', 'inhibition', '%', 0.625),
  ('CCOC12NC(=O)CC(=O)N1C(c1ccccc1)=CS2 (stereo not given)', 'inhibition', '%', 1.85),
  ('CCCN1C(=O)c2cc(C(=O)NC3CCCC3)ccc2C1O (stereo not given)', 'inhibition', '%', 0.125),
  ('CCc1nc(SCC(=O)Nc2ccc(C(=O)O)cc2)n[nH]1', 'inhibition', '%', -0.24),
  ('COc1ccc(S(=O)(=O)Cc2ccc(C(=O)NCc3cccs3)o2)cc1', 'inhibition', '%', 1.21),
  ('N#Cc1nc(COc2cccc(Cl)c2)oc1NCc1ccco1', 'inhibition', '%', 1.65),
  ('O=C(CCN1CCc2ccccc2C1)Nc1ccccc1', 'inhibition', '%', 2.04),
  ('C=CCn1c(C(C)NC(=O)CCC)nc2ccccc21 (stereo not given)', 'inhibition', '%', 1.11),
  ('CN1C[N+]([O-])=C(c2ccccc2)C1(C)C', 'inhibition', '%', 0.69),
  ('c1ccc(Oc2nc(Oc3ccccc3)nc(N3CCOCC3)n2)cc1', 'inhibition', '%', 0.355),
  ('CCOC(=O)C1CCN(C(=O)c2ccc(Cl)c(NC3=NC4CS(=O)(=O)CC4S3)c2)CC1 (stereo not given)', 'inhibition', '%', 1.65),
  ('COc1ccc(OC)c2c1sc(=NC(=O)C(C)(C)C)n2C', 'inhibition', '%', 3.72),
  ('O=C(c1ccc(=O)[nH]c1)N(Cc1ccco1)C1(C(=O)NC2CCCCC2)CCCCC1', 'inhibition', '%', 0.61),
  ('O=S(=O)(CCc1ccccc1)N1CCOCC1', 'inhibition', '%', 0.8),
  ('O=C1C2CCCN2C(c2cccc(F)c2)N1c1cccc(Cl)c1 (stereo not given)', 'inhibition', '%', 0.56),
  ('O=C1CCC(=O)N1CNc1cccnc1', 'inhibition', '%', 0.34),
  ('COc1ccccc1CNC(=O)CCn1c(=O)oc2ccccc21', 'inhibition', '%', 2.48),
  ('O=C(NCCCNCc1ccccc1)c1ccc(/C=N/O)nc1', 'inhibition', '%', 1.73),
  ('Cc1[nH]c(C)c2c(=O)n(-c3ccccc3)ncc12', 'inhibition', '%', 1.31),
  ('CN(C)S(=O)(=O)c1ccc(-c2ccccc2)cc1', 'inhibition', '%', 0.455),
  ('CC(C)(C)c1ccc(-c2cc(N)n[nH]2)cc1', 'inhibition', '%', 2.32),
  ('Cc1c(C(=O)Nc2ccncc2)sc2nc(-c3ccccc3)cn12', 'inhibition', '%', 0.99);
